# MEASURED_ON: T1, Bzz1-2, P38822
# T1 sequence (P38822 568-633, looked up): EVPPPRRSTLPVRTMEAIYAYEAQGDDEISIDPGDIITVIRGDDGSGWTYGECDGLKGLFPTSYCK
# PROTOCOL_SUMMARY: SPOT array
# CONDITION_SUMMARY: median of control spots 4538
Measured SPOT intensity by item
ASSAY_METRIC: SPOT intensity

BINDER	ASSAY_METRIC	VALUE_MEASURED
AGKRRLPLVRFKASD	SPOT intensity	2
VAPPPLPNRQLPNLD	SPOT intensity	0
NHSRSLFSLPGNQQS	SPOT intensity	19
RLSFFFPLDPAYIRN	SPOT intensity	3
LRIKRKPVQTFFEFI	SPOT intensity	0
